# Test system: HeLa
# Assay: Growth inhibition of human HeLa cells after 48 hrs by sulforhodamine B assay
# Type: functional
Quantity name: GI50 (µM)

Previously resolved entries follow.
• ClC(Cl)(Cl)C1c2cc3ccccc3nc2C=C(c2ccccc2)N1CCc1ccccc1 (stereo not drawn) = 38
• CCCCN1C(c2ccccc2)=Cc2nc3ccccc3cc2C1C(Cl)(Cl)Cl (stereo not drawn) = 6.1

(1) C=CCN1C(c2ccccc2)=Cc2nc3ccccc3cc2C1C(Cl)(Cl)Cl (stereo not drawn)
(2) CCOc1ccc(CCN2C(c3ccccc3)=Cc3nc4ccccc4cc3C2C(Cl)(Cl)Cl)cc1OCC (stereo not drawn)
Input: Could you determine which record has the numerically smaller GI50? Candidates: 1 and 2 Answer by stating the label of the chosen item.
Output: 2

(a) ClC(Cl)(Cl)C1c2cc3ccccc3nc2C=C(c2ccccc2)N1Cc1ccccc1 (stereo not drawn)
(b) ClC(Cl)(Cl)C1c2cc3ccccc3nc2C=C(c2ccccc2)N1CCN1CCOCC1 (stereo not drawn)
Input: Would you let me know which has the greater GI50 value, a or b ? Answer by stating the label of the chosen item.
Output: a
(a: 27 µM, b: 6.5 µM)
